# System: primary human hepatic stellate cells (donor 1)
# ASSAY NAME: scaled lipid accumulation score (0 = DMSO-like, 1 = nortriptyline-like); higher = stronger HSC inactivation (lipid re-accumulation), active = hit call of the paper
# STATED CONDITIONS: library stock concentration: 400 uM; 48 h
In all, about 5,800 compounds went through this assay and about 620 (11%) showed activity. Only a selection was taken, and actives are over-represented in it overall.
QUANTITY NAME: scaled lipid accumulation score

Reference set (3 entries):
COMPOUND: OC1CCC(Nc2ncc3nc(Nc4c(F)cc(F)cc4F)n([C@@H]4CCOC4)c3n2)CC1 (stereo not given in full)
QUANTITY NAME: scaled lipid accumulation score
VALUE MEASURED: ≤ 0 (inactive)
//
COMPOUND: COc1cc2c(Oc3ccc4[nH]c(C)cc4c3F)ncnc2cc1OCCCN1CCCC1
QUANTITY NAME: scaled lipid accumulation score
VALUE MEASURED: 0.464 (inactive)
//
COMPOUND: CCOc1cc2ncc(C#N)c(Nc3ccc(F)c(Cl)c3)c2cc1NC(=O)/C=C/CN(C)C
QUANTITY NAME: scaled lipid accumulation score
VALUE MEASURED: ≤ -0.009 (inactive)

The compound Cc1cc2c(F)c(Oc3ncnn4cc(OC[C@@H](C)O)c(C)c34)ccc2[nH]1 , when measured on primary human hepatic stellate cells (donor 1), yielded scaled lipid accumulation score of ≤ -0.009 (inactive)

Reading of scaled lipid accumulation score for CCOc1cc2ncc(C#N)c(Nc3ccc(OCc4ccccn4)c(Cl)c3)c2cc1NC(=O)/C=C/CN(C)C with primary human hepatic stellate cells (donor 1): ≤ 0 (inactive)
